SYSTEM_UNDER_TEST: DNA (cytosine-5)-methyltransferase 1 (Homo sapiens)
Sequence (P26358 whole entry): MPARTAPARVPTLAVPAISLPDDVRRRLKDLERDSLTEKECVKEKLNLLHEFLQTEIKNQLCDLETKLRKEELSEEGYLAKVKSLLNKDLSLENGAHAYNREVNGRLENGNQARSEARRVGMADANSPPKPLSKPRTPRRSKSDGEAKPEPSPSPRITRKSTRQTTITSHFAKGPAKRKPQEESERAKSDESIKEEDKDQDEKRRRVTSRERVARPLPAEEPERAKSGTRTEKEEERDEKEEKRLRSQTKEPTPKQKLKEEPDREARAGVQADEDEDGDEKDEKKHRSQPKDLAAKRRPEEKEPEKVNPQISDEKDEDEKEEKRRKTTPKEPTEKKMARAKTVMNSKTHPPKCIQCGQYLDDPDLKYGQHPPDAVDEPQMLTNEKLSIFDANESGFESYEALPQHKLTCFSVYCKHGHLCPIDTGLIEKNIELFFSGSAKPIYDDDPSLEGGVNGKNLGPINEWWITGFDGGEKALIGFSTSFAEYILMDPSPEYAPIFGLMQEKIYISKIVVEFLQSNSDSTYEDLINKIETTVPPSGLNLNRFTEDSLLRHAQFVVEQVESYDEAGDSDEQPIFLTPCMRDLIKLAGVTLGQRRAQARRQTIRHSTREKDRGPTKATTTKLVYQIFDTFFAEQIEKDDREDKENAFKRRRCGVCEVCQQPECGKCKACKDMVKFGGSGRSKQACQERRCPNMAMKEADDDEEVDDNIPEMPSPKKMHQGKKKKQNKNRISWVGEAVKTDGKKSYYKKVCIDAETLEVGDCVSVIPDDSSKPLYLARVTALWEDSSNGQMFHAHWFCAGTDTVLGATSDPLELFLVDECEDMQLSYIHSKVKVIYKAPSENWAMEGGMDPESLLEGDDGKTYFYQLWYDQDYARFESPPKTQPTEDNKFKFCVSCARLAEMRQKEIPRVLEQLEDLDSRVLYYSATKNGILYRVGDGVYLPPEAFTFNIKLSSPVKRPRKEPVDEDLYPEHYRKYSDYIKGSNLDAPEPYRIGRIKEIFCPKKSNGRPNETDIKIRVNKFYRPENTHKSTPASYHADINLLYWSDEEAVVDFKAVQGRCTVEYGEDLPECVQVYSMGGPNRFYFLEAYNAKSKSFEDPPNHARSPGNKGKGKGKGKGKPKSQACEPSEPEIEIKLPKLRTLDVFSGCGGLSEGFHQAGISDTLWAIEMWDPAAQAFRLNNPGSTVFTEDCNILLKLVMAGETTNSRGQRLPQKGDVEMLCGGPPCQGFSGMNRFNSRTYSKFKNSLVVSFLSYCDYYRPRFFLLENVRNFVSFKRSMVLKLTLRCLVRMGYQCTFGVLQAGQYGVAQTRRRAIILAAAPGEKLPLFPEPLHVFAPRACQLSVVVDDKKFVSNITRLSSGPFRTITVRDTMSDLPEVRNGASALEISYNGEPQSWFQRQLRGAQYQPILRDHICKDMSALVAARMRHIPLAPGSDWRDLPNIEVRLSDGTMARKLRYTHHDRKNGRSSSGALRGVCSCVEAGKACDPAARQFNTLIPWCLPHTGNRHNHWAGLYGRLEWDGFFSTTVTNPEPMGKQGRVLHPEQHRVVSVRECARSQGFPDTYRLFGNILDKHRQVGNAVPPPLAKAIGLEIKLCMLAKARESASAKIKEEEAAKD
TEST_NAME: Inhibition of His6-tagged human recombinant DNMT1 expressed in insect Sf9 cells assessed as reduction in DNA methyltransferase activity using 5'-biotinylated 45-bp unmethylated or hemimethylated oligonucleotide substrates and [3H]-AdoMet by liquid scintillation counting method
MEASUREMENT_NAME: IC50 (µM)

O=C(O)[C@H](Cc1c[nH]c2ccccc12)N1C(=O)C=CC1=O    20
O=c1c(-c2ccc(O)cc2)coc2cc(O)cc(O)c12    30
O=[N+]([O-])c1cc(S(=O)(=O)Nc2ccc(O)c3ccccc23)ccc1Cl    1.2
O=C(O[C@@H]1Cc2c(O)cc(O)cc2O[C@@H]1c1cc(O)c(O)c(O)c1)c1cc(O)c(O)c(O)c1 [EPIGALOCATECHIN GALLATE]    0.5
O=C1C(Cl)=C(Cl)C(=O)c2ccccc21    1.6

1. CCN(CC)CCNC(=O)c1ccc(NCCCCCCCCCCCCN2C(=O)c3ccccc3C2=O)cc1
2. O=[N+]([O-])c1ccc(C2=NC[C@H](CN3CCCC3)O2)cc1
Q. Form field 'greater IC50' accepts 1 or 2 ; which applies? Respond using the label that marks the chosen record.
A. 2
